Cited source for all entries: patent US20210139484A1

Biological target: human HPK1 protein (Homo sapiens)
Construct: recombinant human HPK1 protein (a.a. 1-346) was expressed in Sf9 insect cells; GST (N); purchased Signalchem M23-11G; host or cells: Sf9 insect cells (baculovirus)
Sequence (Q92918 1-346): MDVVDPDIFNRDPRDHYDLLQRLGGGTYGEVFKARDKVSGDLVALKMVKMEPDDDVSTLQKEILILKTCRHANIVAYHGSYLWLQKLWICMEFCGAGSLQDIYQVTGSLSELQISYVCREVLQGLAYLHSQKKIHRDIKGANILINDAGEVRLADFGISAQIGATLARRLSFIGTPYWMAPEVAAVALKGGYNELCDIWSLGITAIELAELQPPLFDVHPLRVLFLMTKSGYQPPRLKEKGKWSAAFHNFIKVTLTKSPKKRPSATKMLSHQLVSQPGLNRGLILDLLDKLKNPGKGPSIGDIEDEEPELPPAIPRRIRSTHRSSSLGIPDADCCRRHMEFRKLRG
Experiment: Human HPK1 protein TR-FRET assay
Assay type: biochemical
Details: 1 mM ATP, Table 19
Procedure: Exemplary compounds from the above Examples were tested for ability to inhibit HPK1 using a human HPK1 protein TR-FRET Assay. Assay procedures and results are described below. […] The fluorescence resonance energy transfer (FRET) signal was measured on an Envision plate reader: Excitation filter=340 nm, APC emission=665 nm, Europium emission=615 nm, dichroic mirror=D400/D630, delay time=100 μs, and integration time=200 μs. […]
pIC50: −log10 of the molar value.
Parameter measured: pIC50

Examples from the recorded data:
> print(dat)
                                   compound                        measured.on  parameter.measured       reading
1  CCN1CCN(Cc2ccc(NC(=O)N3Cc4cc(Oc5ccnc6[nH]ccc56)ccc4C(C)C3)cc2C(F)(F)F)CC1 (single isomer, unassigned) [IV-2]  human HPK1 protein (Homo sapiens)               pIC50        > 6.30
2  Cc1cc2c(Oc3cnc4c(c3)CN(C(=O)Nc3cnc(OC5CCN(C)CC5)c(C(F)(F)F)c3)CC4C)ccnc2[nH]1 (single isomer, unassigned) [VII-8]  human HPK1 protein (Homo sapiens)               pIC50        > 6.30
3  CCN1CCN(Cc2ccc(NC(=O)N3CCc4ccc(Oc5ccnn6cc(-c7cnn(C)c7)cc56)cc4C3)cc2C(F)(F)F)CC1  human HPK1 protein (Homo sapiens)               pIC50        > 6.30
4  CCN1CCN(Cc2ccc(NC(=O)N3Cc4cc(Oc5ccnc6[nH]c(C)cc56)ccc4C(C)C3)cc2C(F)(F)F)CC1 (stereo not drawn) [IV-18]  human HPK1 protein (Homo sapiens)               pIC50        > 6.30
5  CCN1CCN(Cc2ccc(NC(=O)N3CCc4ccc(Oc5c(C)cnc6[nH]ccc56)cc4C3)cc2C(F)(F)F)CC1  human HPK1 protein (Homo sapiens)               pIC50  5.30 to 6.30

Please list pIC50 recorded for the compound `CCN1CCN(Cc2ccc(NC(=O)N3CCc4ccc(Oc5ccnc6[nH]cnc56)cc4C3)cc2C(F)(F)F)CC1`
> 6.30

Kindly indicate its recorded pIC50. Item: CCN1CCN(Cc2ccc(NC(=O)N3CCc4cc(C#N)c(Oc5ccnc6[nH]ccc56)cc4C3C)cc2C(F)(F)F)CC1 (stereo not drawn)
5.30 to 6.30

Supply recorded pIC50 for CCN1CCN(Cc2ccc(NC(=O)N3CC(C)c4ccc(Oc5ccnc6[nH]ccc56)cc4[C@@H]3C)cc2C(F)(F)F)CC1 (stereo partly drawn) here.
< 5.00
